Where do the numbers come from? From PubChem BioAssay AID1508600.

- assay.text: Components of the Cytosolic LPS Sensing Pathway: Gene Identification via Genome-wide siRNA Screen;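 note: robust z of the log signal after scaling to non-targeting control siRNA wells of the plate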
- details: RAW264.7 macrophages, IL-1a HTRF, actives lie on both sides, screened at 100 nM (by protocol), cells primed 5 h with Pam3CSK4 first
Screen size: about 53,000 sequences; about 3,700 (7%) were called active. Many of the other results were omitted from the sample, so actives are more common in it than they were.
Listed here: items and their measured z-score.

// solved cases for z-score follow
GCUGUACCCGAAUGAGUUUTT against Mgat2 = 2.54 (active)
CGUAUAUCCGGUCAGAAGATT against Cnot4 = 0.634 (inactive)
GACUUCGGACAAAUGGUGCTT against Lce1f = 2.27 (active)
GGUCAAGGAGAUCACCUUCTT against Comp = -1.27 (inactive)
GCAGCUAAGAAGACCACUATT against Zfp185 = 2.15 (active)

Switching to the query record.
stdin: What value of measured z-score is listed for GGCCUUUUCUCAUCUCUGGTT against Igfals ?
stdout: -1.57 (inactive)

---

- assay.text: Components of the Cytosolic LPS Sensing Pathway: Gene Identification via Genome-wide siRNA Screen;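 note: robust z of the log signal after scaling to non-targeting control siRNA wells of the plate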
- details: RAW264.7 macrophages, IL-1a HTRF, actives lie on both sides, screened at 100 nM (by protocol), cells primed 5 h with Pam3CSK4 first
Among all 53,000 sequences or so, about 3,700 (7%) were called active. The full list was thinned out, with actives kept by preference.
Note to self: values exactly at 0.3 are T. So z-score at or above 0.3 is T, below is F.

Example entries and their recorded answers appear below.
CCUGGACCCAUGAAGUCUUTT against Ahnak = T
GCCGAGAGGGAUGUGUAUATT against Psmb1 = F
GGCUGGAGAUCUCUCAAAGTT against Nkain2 = T
GGUCUAGCUCAAAAUCCCATT against Srek1 = F
GGAGACUGCUAUAUUGGCUTT against 1700092C17Rik = F

stdin: Please tell me: is the sequence GGCCCUCUGAGAUUAAUGUTT against Nfkbid at or over 0.3 in terms of z-score?
stdout: T

stdin: Same question, GGUCAAGUCAGUAACUGCATT against Olfr10 this time
stdout: T

stdin: Same question, CCGAUUUAACUGAAUUUGCTT against Acaa2 this time
stdout: T

stdin: Same question, CGGUGGAAUUCGUUAGAAGTT against Ireb2 this time
stdout: F

stdin: Same question, GCUCCAAUAGCGUAUAUUATT against Pigt this time
stdout: F

stdin: Same question, GGAUGUCUACUGGAAUGUUTT against Pigv this time
stdout: F

stdin: Same question, GGAUAACCAACAAGGUUUUTT against Mgst1 this time
stdout: T

---

Listed here: items and their measured z-score.
- assay.text: Components of the Cytosolic LPS Sensing Pathway: Gene Identification via Genome-wide siRNA Screen;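 note: robust z of the log signal after scaling to non-targeting control siRNA wells of the plate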
- details: RAW264.7 macrophages, IL-1a HTRF, actives lie on both sides, screened at 100 nM (by protocol), cells primed 5 h with Pam3CSK4 first
- Method: Non-canonical inflammasome activation by cytosolic LPS is a critical component of the host response to Gram-negative bacterial infection, however we lack a comprehensive understanding of the cellular processes that control this pathway. […] Lipofectamine RNAiMAX Transfection Reagent ([…]; Invitrogen) was added in […] serum-free, antibiotic-free media to plate wells using a Thermo Scientific Matrix WellMate and Microplate Stacker. […] The plates were read on an EnVision plate reader (PerkinElmer). […]
The whole screen tested about 53,000 sequences, of which about 3,700 (7%) were called active. The sample as a whole holds a higher share of actives than the screen did.
# output: bare number, no unit

UCAACUCAAACUAUGUCGATT against Hoxb4 = -0.172
GCAUAGAGGACUACAACGATT against Optc = 0.329
GGACUUCUUCUUGUACAACTT against Capn3 = 1.03
GGAUGAUGACUUCCUAGGGTT against Cpne7 = -0.622
GGCACAUUGCUGAAGCCCATT against Aldoa = -2.42
GGUCUUUUCUAUUAUGGGATT against Strc = 1.22
CCUUACCACUUGAAGAUGGTT against Ephx1 = -1.2
GGAAAGGAGAAGAGAAAUGTT against Scyl1 = 1.18
GGCCAUUUGUUAGGACCUGTT against Prmt6 = 0.205
CCUAUAGCAGUGGUUUUCATT against Ece2 = 2.22

stdin: What value of measured z-score is listed for UACCCAUUGUCAAGUUGGATT against Grm4 ?
stdout: -0.634

stdin: Same question, GGUGUACGAGAUCCAGGACTT against Eif3l this time
stdout: -0.699

stdin: Same question, GGUACACAACCAUCCUUGATT against Olfr600 this time
stdout: -2.33
